FYI, the data here is from patent US20200317776A1.

molecular target: human TREM2/DAP12 fusion protein (human, UniProt O43914 41-113, limits assumed); assay: cell-based or functional assay
Sequence (O43914 other isoform, or with tags, fused parts or gaps limits assumed): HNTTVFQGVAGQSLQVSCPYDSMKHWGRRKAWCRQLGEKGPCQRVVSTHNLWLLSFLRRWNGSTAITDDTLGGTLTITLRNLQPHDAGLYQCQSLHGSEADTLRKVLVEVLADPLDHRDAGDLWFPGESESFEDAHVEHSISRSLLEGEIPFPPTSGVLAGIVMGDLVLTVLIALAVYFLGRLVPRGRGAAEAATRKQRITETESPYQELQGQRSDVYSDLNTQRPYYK
METRIC_NAME: BW Luc assay plate bound 7.3 nM IgG, FOC (FOC)
Response body: numeric value in FOC, unit text excluded.

Q. Which BW Luc assay plate bound 7.3 nM IgG, FOC value is on record for AL2p-45 (antibody, V domains shown, Fab and IgG formats under one id) VH: QVQLVQSGAEVKKPGSSVKVSCKASGYAFSSDWMNWVRQAPGQGLEWMGRIYPGEGDTNYARKFQGRVTITADESTSTAYMELSSLRSEDTAVYYCARLLRNKPGESYAMDYWGQGTLVTVSS VL: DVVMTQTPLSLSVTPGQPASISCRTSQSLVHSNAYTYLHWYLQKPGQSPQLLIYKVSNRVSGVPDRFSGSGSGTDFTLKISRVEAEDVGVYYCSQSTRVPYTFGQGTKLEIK ?
A. 2.29
